The origin of these recorded values is patent US20050267182A1.

Target: FLT3 (Homo sapiens, UniProt P36888)
Construct: FLT3(DKIN); made in house
Sequence (P36888 610-943 limits assumed): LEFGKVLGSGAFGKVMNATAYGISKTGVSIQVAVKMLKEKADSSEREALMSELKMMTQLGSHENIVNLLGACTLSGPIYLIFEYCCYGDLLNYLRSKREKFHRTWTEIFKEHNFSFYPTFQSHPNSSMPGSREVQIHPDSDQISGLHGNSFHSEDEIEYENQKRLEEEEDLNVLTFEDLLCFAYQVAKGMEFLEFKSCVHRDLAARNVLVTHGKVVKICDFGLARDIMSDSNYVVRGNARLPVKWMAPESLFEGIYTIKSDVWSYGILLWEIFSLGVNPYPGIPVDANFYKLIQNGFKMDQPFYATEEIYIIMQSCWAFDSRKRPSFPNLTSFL
Test: Binding constant (Kd) measurement, phage-displayed kinase competition binding assay
Details: FLT3(JMminus) construct
TEST_READOUT: Binding Assay: FLT3(JMminus)

Below, 4 compounds whose answers are already recorded.
SMILES_REPRESENTATION | TEST_VALUE
CC(C)(C)c1cc(NC(=O)Nc2ccc(NC(=O)Cc3noc4ccccc34)cc2)no1 | + + +
CC(C)(C)c1cnc(CSc2cnc(NC(=O)Nc3ccon3)s2)o1 | + + +
Cc1ccc2[nH]c(C(=O)Nc3ccc(NC(=O)Nc4cc(C(C)(C)C)on4)cc3)cc2c1 | + + + +
CN(C)c1ccc(C(=O)Nc2ccc(NC(=O)Nc3cc(C(C)(C)C)on3)cc2)cn1 | + + + +

Recorded Binding Assay: FLT3(JMminus) for CC(C)(C)c1cc(NC(=O)Nc2ccc(NC(=O)CSCC(=O)Nc3ccccc3)cc2)no1 , please?
+ + + +

And what about the compound CC(C)(C)c1cc(NC(=O)Nc2ccc(NC(=O)c3ccc(Oc4ccnc(C(=O)O)c4)cc3)cc2)no1 ?
+ + + +

And what about the compound COc1ccc(NC(=O)Nc2cc(C(C)(C)C)on2)cc1OC ?
+ +

And what about the compound CC(C)(C)c1cc(NC(=O)Nc2ccc(N3C(=O)c4ccccc4C3=O)cc2)no1 ?
+ + +
